target: UniProtKB P31751; assay: radiometric filter-binding kinase assay; details: compound 1.0 µM; ATP 50 µM
Sequence (P31751 whole entry, looked up): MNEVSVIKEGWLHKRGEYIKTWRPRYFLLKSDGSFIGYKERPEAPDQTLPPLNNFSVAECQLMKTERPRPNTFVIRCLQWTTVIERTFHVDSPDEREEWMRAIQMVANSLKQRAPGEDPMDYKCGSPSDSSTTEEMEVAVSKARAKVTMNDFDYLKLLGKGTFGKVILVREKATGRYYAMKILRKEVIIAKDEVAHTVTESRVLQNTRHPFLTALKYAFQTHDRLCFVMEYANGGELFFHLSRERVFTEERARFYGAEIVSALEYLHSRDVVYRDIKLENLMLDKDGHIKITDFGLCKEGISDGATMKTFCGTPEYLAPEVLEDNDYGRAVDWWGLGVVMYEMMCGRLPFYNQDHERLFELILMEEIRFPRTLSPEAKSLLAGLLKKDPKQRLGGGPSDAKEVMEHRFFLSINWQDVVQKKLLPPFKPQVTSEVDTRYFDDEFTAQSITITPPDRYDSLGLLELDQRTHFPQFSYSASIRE
residual activity under 90% gets y, anything at or over 90% gets n.

*Q* Would you kindly verify if residual activity of `COc1ccc2c(c1)=NC1=C(C)NCCC=21` is strictly less than 90%?
*A* n

*Q* And for `O=S(=O)(NCCNC/C=C/c1ccc(Br)cc1)c1cccc2cnccc12` ?
*A* y

*Q* And for CO[C@H]1CC2CC[C@@H](C)[C@@](O)(O2)C(=O)C(=O)N2CCCC[C@H]2C(=O)OC([C@H](C)C[C@@H]2CC[C@@H](O)[C@H](OC)C2)CC(=O)[C@H](C)/C=C(\C)[C@@H](O)[C@@H](OC)C(=O)[C@H](C)C[C@H](C)/C=C/C=C/C=C/1C (stereo not given in full) ?
*A* y

###

target: CaMK1 (human) (UniProt Q14012); assay: radiometric filter-binding kinase assay; conditions: compound 1.0 µM; ATP 50 µM
Sequence (Q14012 whole entry, looked up): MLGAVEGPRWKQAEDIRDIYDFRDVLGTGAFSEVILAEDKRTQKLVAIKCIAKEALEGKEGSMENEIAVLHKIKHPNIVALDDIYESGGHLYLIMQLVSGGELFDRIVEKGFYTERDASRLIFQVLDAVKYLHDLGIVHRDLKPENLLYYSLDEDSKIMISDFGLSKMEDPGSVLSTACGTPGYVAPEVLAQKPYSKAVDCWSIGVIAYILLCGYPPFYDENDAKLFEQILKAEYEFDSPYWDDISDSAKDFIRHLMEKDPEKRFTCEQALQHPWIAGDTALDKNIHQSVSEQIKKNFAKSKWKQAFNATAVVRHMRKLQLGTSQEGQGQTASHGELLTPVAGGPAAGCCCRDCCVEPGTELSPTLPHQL
Observed Property: residual activity (%)
Write the value in % as a bare number.

*Q* # lookup: residual activity of `O=C1c2ccccc2-c2n[nH]c3cccc1c23`
*A* 73

*Q* And for `COc1ccc2c(c1)=NC1=C(C)NCCC=21` ?
*A* 103

*Q* And for CO[C@H]1CC2CC[C@@H](C)[C@@](O)(O2)C(=O)C(=O)N2CCCC[C@H]2C(=O)OC([C@H](C)C[C@@H]2CC[C@@H](O)[C@H](OC)C2)CC(=O)[C@H](C)/C=C(\C)[C@@H](O)[C@@H](OC)C(=O)[C@H](C)C[C@H](C)/C=C/C=C/C=C/1C (stereo partly specified) ?
*A* 97

*Q* And for `CC(C)(N)c1ccc(-c2nc3ccccc3nc2-c2ccccc2)cc1` ?
*A* 43

*Q* And for `O=S(=O)(NCCNC/C=C/c1ccc(Br)cc1)c1cccc2cnccc12` ?
*A* 101

*Q* And for `COC[C@H]1OC(=O)c2coc3c2[C@@]1(C)C1=C(C3=O)[C@@H]2CCC(=O)[C@@]2(C)C[C@H]1OC(C)=O` ?
*A* 97

###

Field: residual activity. Provide a value for each of the compounds that follow.
molecular target: CSNK1D (human) (UniProt P48730); assay: radiometric filter-binding kinase assay; conditions: compound 1.0 µM; ATP 20 µM
Sequence (P48730 whole entry, looked up): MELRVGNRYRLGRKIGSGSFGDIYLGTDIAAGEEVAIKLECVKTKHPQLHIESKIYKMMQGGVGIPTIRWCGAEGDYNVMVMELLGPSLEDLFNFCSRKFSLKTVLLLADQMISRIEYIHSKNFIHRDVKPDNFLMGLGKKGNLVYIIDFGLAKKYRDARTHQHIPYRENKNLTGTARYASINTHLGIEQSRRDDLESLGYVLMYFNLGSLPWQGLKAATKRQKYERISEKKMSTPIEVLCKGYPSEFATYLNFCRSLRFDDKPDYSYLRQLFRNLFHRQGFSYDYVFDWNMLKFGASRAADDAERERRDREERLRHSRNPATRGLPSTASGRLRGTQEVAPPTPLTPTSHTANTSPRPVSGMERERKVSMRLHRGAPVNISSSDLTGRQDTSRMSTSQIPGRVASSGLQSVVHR
Write the value in % as a bare number.

*Q* # lookup: residual activity of CO[C@H]1CC2CC[C@@H](C)[C@@](O)(O2)C(=O)C(=O)N2CCCC[C@H]2C(=O)OC([C@H](C)C[C@@H]2CC[C@@H](O)[C@H](OC)C2)CC(=O)[C@H](C)/C=C(\C)[C@@H](O)[C@@H](OC)C(=O)[C@H](C)C[C@H](C)/C=C/C=C/C=C/1C (some centres undefined)
*A* 88

*Q* And for `COC[C@H]1OC(=O)c2coc3c2[C@@]1(C)C1=C(C3=O)[C@@H]2CCC(=O)[C@@]2(C)C[C@H]1OC(C)=O` ?
*A* 94

*Q* And for `COc1ccc2c(c1)[nH]c1c(C)nccc12` ?
*A* 60

*Q* And for `O=C1c2ccccc2-c2n[nH]c3cccc1c23` ?
*A* 15

###

molecular target: UniProtKB Q8N5S9; assay: radiometric filter-binding kinase assay; details: compound 1.0 µM; ATP 20 µM
Sequence (Q8N5S9 whole entry, looked up): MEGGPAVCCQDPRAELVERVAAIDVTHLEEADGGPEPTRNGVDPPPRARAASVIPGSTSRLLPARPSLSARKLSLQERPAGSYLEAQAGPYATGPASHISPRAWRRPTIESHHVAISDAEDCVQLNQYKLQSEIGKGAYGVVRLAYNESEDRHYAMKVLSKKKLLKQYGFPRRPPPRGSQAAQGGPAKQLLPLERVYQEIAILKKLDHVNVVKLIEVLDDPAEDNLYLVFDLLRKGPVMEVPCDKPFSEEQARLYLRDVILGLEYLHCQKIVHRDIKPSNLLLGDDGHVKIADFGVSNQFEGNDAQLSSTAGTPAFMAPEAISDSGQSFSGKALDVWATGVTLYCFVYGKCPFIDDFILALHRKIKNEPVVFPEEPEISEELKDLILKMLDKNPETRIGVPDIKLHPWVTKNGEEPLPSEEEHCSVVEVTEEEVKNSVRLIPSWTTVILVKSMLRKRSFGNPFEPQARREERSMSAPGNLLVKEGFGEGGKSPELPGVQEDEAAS
Observed Property: residual activity

*Q* Fill in the recorded residual activity for this molecule, with UniProtKB Q8N5S9 as test system: `O=C1c2ccccc2-c2n[nH]c3cccc1c23`
*A* 68%

*Q* And for `O=S(=O)(NCCNC/C=C/c1ccc(Br)cc1)c1cccc2cnccc12` ?
*A* 102%

*Q* And for `CC(C)(N)c1ccc(-c2nc3ccccc3nc2-c2ccccc2)cc1` ?
*A* 93%

*Q* And for CO[C@H]1CC2CC[C@@H](C)[C@@](O)(O2)C(=O)C(=O)N2CCCC[C@H]2C(=O)OC([C@H](C)C[C@@H]2CC[C@@H](O)[C@H](OC)C2)CC(=O)[C@H](C)/C=C(\C)[C@@H](O)[C@@H](OC)C(=O)[C@H](C)C[C@H](C)/C=C/C=C/C=C/1C (stereo partly specified) ?
*A* 80%

*Q* And for `COC[C@H]1OC(=O)c2coc3c2[C@@]1(C)C1=C(C3=O)[C@@H]2CCC(=O)[C@@]2(C)C[C@H]1OC(C)=O` ?
*A* 83%

*Q* And for `COc1ccc2c(c1)=NC1=C(C)NCCC=21` ?
*A* 92%

###

Field: residual activity. Provide a value for each of the molecules that follow.
target: DYRK3 (human) (UniProt O43781); assay: radiometric filter-binding kinase assay; conditions: compound 1.0 µM; ATP 5 µM
Sequence (O43781 whole entry, looked up): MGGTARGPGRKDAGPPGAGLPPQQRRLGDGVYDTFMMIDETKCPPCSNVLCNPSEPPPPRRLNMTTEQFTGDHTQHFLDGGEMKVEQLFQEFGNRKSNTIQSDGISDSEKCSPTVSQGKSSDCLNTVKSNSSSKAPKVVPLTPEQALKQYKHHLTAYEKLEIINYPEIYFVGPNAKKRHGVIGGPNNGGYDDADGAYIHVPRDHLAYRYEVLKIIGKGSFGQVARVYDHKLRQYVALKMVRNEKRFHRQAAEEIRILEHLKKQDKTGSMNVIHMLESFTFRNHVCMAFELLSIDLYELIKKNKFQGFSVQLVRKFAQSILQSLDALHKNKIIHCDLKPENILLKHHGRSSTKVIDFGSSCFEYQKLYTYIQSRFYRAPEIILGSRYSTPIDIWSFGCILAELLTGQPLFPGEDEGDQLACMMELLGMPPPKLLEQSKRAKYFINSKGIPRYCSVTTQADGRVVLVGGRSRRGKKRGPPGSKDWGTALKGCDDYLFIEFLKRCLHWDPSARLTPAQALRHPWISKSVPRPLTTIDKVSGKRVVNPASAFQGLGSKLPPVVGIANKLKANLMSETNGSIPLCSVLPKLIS
Just so you know, I need the unit written after the number.

*Q* # lookup: residual activity of `COc1ccc2c(c1)=NC1=C(C)NCCC=21`
*A* 49%

*Q* And for `CC(C)(N)c1ccc(-c2nc3ccccc3nc2-c2ccccc2)cc1` ?
*A* 86%

*Q* And for CO[C@H]1CC2CC[C@@H](C)[C@@](O)(O2)C(=O)C(=O)N2CCCC[C@H]2C(=O)OC([C@H](C)C[C@@H]2CC[C@@H](O)[C@H](OC)C2)CC(=O)[C@H](C)/C=C(\C)[C@@H](O)[C@@H](OC)C(=O)[C@H](C)C[C@H](C)/C=C/C=C/C=C/1C (stereo partly specified) ?
*A* 88%

*Q* And for `O=C1c2ccccc2-c2n[nH]c3cccc1c23` ?
*A* 30%

*Q* And for `COC[C@H]1OC(=O)c2coc3c2[C@@]1(C)C1=C(C3=O)[C@@H]2CCC(=O)[C@@]2(C)C[C@H]1OC(C)=O` ?
*A* 84%

*Q* And for `O=S(=O)(NCCNC/C=C/c1ccc(Br)cc1)c1cccc2cnccc12` ?
*A* 65%

###

molecular target: MYLK (human); test: radiometric filter-binding kinase assay; conditions: compound 1.0 µM; ATP 50 µM
Field: residual activity. Provide a value for each of the molecules that follow.
Write the value in % as a bare number.

*Q* # lookup: residual activity of `O=C1c2ccccc2-c2n[nH]c3cccc1c23`
*A* 34

*Q* And for `O=S(=O)(NCCNC/C=C/c1ccc(Br)cc1)c1cccc2cnccc12` ?
*A* 91

*Q* And for `CC(C)(N)c1ccc(-c2nc3ccccc3nc2-c2ccccc2)cc1` ?
*A* 79

*Q* And for CO[C@H]1CC2CC[C@@H](C)[C@@](O)(O2)C(=O)C(=O)N2CCCC[C@H]2C(=O)OC([C@H](C)C[C@@H]2CC[C@@H](O)[C@H](OC)C2)CC(=O)[C@H](C)/C=C(\C)[C@@H](O)[C@@H](OC)C(=O)[C@H](C)C[C@H](C)/C=C/C=C/C=C/1C (stereo not given in full) ?
*A* 107

*Q* And for `COC[C@H]1OC(=O)c2coc3c2[C@@]1(C)C1=C(C3=O)[C@@H]2CCC(=O)[C@@]2(C)C[C@H]1OC(C)=O` ?
*A* 72

###

tested on: RPS6KB1 (human), P23443 [T412E]; test: radiometric filter-binding kinase assay; conditions: compound 1.0 µM; ATP 20 µM
Sequence (P23443 whole entry T412E, looked up): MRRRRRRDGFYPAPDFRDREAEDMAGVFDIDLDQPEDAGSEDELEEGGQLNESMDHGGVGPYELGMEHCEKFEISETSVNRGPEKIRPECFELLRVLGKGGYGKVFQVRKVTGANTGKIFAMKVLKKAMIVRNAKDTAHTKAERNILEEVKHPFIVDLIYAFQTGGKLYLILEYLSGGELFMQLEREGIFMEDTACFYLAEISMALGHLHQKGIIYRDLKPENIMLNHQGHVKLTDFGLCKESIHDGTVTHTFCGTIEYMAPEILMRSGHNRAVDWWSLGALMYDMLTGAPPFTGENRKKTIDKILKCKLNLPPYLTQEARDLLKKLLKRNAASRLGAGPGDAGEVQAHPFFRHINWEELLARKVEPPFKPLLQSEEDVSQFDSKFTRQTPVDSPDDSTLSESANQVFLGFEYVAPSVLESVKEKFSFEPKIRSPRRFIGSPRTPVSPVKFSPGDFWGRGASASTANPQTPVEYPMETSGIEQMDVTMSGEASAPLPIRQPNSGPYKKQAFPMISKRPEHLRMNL
Observed Property: residual activity (%)
Write the value in % as a bare number.

*Q* # lookup: residual activity of `COC[C@H]1OC(=O)c2coc3c2[C@@]1(C)C1=C(C3=O)[C@@H]2CCC(=O)[C@@]2(C)C[C@H]1OC(C)=O`
*A* 95

*Q* And for `O=C1c2ccccc2-c2n[nH]c3cccc1c23` ?
*A* 85

*Q* And for `COc1ccc2c(c1)=NC1=C(C)NCCC=21` ?
*A* 93

*Q* And for `CC(C)(N)c1ccc(-c2nc3ccccc3nc2-c2ccccc2)cc1` ?
*A* 100

*Q* And for CO[C@H]1CC2CC[C@@H](C)[C@@](O)(O2)C(=O)C(=O)N2CCCC[C@H]2C(=O)OC([C@H](C)C[C@@H]2CC[C@@H](O)[C@H](OC)C2)CC(=O)[C@H](C)/C=C(\C)[C@@H](O)[C@@H](OC)C(=O)[C@H](C)C[C@H](C)/C=C/C=C/C=C/1C (stereo partly specified) ?
*A* 106

*Q* And for `O=S(=O)(NCCNC/C=C/c1ccc(Br)cc1)c1cccc2cnccc12` ?
*A* 11

###

Field: residual activity. Provide a value for each of the compounds that follow.
target: PIM2 (human); assay: radiometric filter-binding kinase assay; conditions: compound 1.0 µM; ATP 5 µM
Just so you know, I need the unit written after the number.

*Q* # lookup: residual activity of `O=C1c2ccccc2-c2n[nH]c3cccc1c23`
*A* 58%

*Q* And for `COc1ccc2c(c1)=NC1=C(C)NCCC=21` ?
*A* 117%

*Q* And for CO[C@H]1CC2CC[C@@H](C)[C@@](O)(O2)C(=O)C(=O)N2CCCC[C@H]2C(=O)OC([C@H](C)C[C@@H]2CC[C@@H](O)[C@H](OC)C2)CC(=O)[C@H](C)/C=C(\C)[C@@H](O)[C@@H](OC)C(=O)[C@H](C)C[C@H](C)/C=C/C=C/C=C/1C (stereo partly specified) ?
*A* 117%

*Q* And for `CC(C)(N)c1ccc(-c2nc3ccccc3nc2-c2ccccc2)cc1` ?
*A* 88%

*Q* And for `O=S(=O)(NCCNC/C=C/c1ccc(Br)cc1)c1cccc2cnccc12` ?
*A* 91%

*Q* And for `COC[C@H]1OC(=O)c2coc3c2[C@@]1(C)C1=C(C3=O)[C@@H]2CCC(=O)[C@@]2(C)C[C@H]1OC(C)=O` ?
*A* 83%
